# tgt: UniProtKB P14780
# Sequence (P14780 whole entry): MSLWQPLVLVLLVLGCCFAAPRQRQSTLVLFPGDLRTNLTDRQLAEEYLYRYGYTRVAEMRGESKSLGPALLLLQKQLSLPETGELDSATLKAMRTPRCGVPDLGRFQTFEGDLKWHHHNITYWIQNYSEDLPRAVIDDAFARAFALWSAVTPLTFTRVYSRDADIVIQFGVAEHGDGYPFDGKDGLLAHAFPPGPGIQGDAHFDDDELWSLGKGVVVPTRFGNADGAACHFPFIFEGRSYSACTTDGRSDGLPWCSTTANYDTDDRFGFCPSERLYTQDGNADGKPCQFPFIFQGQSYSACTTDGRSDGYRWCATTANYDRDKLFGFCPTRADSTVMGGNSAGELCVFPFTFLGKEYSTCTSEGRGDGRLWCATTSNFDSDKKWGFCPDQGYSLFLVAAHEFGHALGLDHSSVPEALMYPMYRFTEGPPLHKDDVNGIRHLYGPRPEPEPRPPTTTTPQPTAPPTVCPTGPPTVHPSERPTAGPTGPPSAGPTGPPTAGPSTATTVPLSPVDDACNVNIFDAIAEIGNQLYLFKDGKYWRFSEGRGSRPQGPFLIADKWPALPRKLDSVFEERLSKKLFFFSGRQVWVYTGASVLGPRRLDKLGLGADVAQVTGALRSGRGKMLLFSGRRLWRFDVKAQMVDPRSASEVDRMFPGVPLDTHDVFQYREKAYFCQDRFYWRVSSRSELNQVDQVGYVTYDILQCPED
pKi: −log10 of the molar value.

structure as smiles	pKi
CC1(c2ccc(O)cc2)C(=O)NC(=O)NC1=O	6.07
CC1(c2ccc(OCc3ccccc3)cc2)C(=O)NC(=O)NC1=O	< 5.67
Cc1cc(COc2ccc(C3(N4CCN(CCCc5ccccc5)CC4)C(=O)NC(=O)NC3=O)cc2)c2ccccc2n1	5.69
Cc1cc(COc2ccc(C3(N4CCN(C(=O)OC(C)(C)C)CC4)C(=O)NC(=O)NC3=O)cc2)c2ccccc2n1	< 5.67
Cc1cc(COc2ccc(C3(N4CCN(CC(C)(C)C)CC4)C(=O)NC(=O)NC3=O)cc2)c2ccccc2n1	< 5.67
Cc1cc(COc2ccc(C3(N4CCN(C(C)C)CC4)C(=O)NC(=O)NC3=O)cc2)c2ccccc2n1	< 5.67
Cc1cc(COc2ccc(C3(N4CCN(Cc5ccccc5)CC4)C(=O)NC(=O)NC3=O)cc2)c2ccccc2n1	< 5.67
Cc1cc(COc2ccc(C3(N4CCN(C)CC4)C(=O)NC(=O)NC3=O)cc2)c2ccccc2n1	< 5.67
Cc1cc(COc2ccc(C3(N4CCNCC4)C(=O)NC(=O)NC3=O)cc2)c2ccccc2n1	< 5.67
CC(=O)c1ccc(N2CCN(C3(c4ccc(OCc5cc(C)nc6ccccc56)cc4)C(=O)NC(=O)NC3=O)CC2)cc1	< 5.67
